experimental_target: human ErbB2, full length, on cells (human, UniProt P04626 23-1255)
test: cell-based or functional assay
assay_metric: EC50 (ng/ml), inhibition of Heregulin-induced MCF7 cell proliferation (ng/mL)
One number for each entry, in ng/mL.

- monoclonal antibody 1.20 (antibody, V domains shown, Fully human IgG (gamma/kappa) from a XenoMouse XM3B-3 hybridoma; constant regions not tied to it; also called 1.20.1; 1.19) VH: EVQLVESGGGLVKPGGSLRLSCAASGFTFSSYTMNWVRQAPGKGLEWVSSISSSSSYIYYADSVKGRFTISRDNAKNSLYLQMNSLSAEDTAVYSCARGGDGYNYYYFDYWGQGTLVTVSS VL: DIVMTQSPGSLVVSLGERATITCKSSQSVFFRSNNKNCLAWYQQRPGQSPNLLIYWASTRESGVPDRFSGSGSGTDFTLTISSLQAEDVAVYYCQQYFGSPFTFGPGTKVDIK: 770
- monoclonal antibody 1.96 (antibody, V domains shown, Fully human IgG (gamma/kappa) from a XenoMouse XM3B-3 hybridoma; constant regions not tied to it) VH: EVQLVESGGGLVKPGGSLRLSCAASGFTFSSYSMNWVRQAPGKGLEWVSSISSSSSYIYYADSVKGRFTISRDNAKNSLYLQMNSLRAEDTAVYYCARGGDGYNYYYFDYWGQGTLVTVSS VL: DIVMTQSPDSLAVSLGERATITCKSSQSVFFRSNNKNCLAWYQQRPGQPPNLLFYWASTRESGVPDRFSGSGSGTDFTLTISSLQAEDVAVYYCQQYFGSPFTLGPGTKVDIK: 2830

Attention now shifts to the item below.
Summary for this binder, monoclonal antibody 1.18.1 (antibody, V domains shown, Fully human IgG (gamma/kappa) from a XenoMouse XM3B-3 hybridoma; constant regions not tied to it) VH: EVQLVESGGGLVKPGGSLRLSCAASGFTFSSYSMNWVRQAPGKGLEWVSSISSSSSYIYYADSVKGRFTISRDNAKNSLYLQMNSLSAEDTAVYSCARGGDGYNYYYFDYWGQGTLVTVSS VL: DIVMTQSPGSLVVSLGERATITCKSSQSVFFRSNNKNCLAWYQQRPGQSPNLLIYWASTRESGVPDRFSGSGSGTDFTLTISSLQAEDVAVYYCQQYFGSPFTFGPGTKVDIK : EC50 (ng/ml), inhibition of Heregulin-induced MCF7 cell proliferation is 415
